Target: T1, human IL-17A with C-terminal Avi-tag, biotinylated, immobilized on BLI sensors (human, UniProt Q16552 24-155, biotin on the C-terminal Avi-tag (BirA))
T1 construct: also called biotinylated IL-17A; not shown: C-terminal Avi-tag
T1 sequence (Q16552 24-155): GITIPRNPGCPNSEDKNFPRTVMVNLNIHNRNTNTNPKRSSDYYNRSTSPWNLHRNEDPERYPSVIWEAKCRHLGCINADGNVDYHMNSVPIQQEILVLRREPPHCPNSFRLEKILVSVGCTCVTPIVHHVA
Assay: BLI, biotinylated IL-17A immobilized, monovalent VHH as analyte
Test Readout: Kd (nM)

# annotated cases, reported Kd shown
{"Binder": "VHH662 (VHH, Control VHH of Ablynx, disclosed in WO2012156219) VHH: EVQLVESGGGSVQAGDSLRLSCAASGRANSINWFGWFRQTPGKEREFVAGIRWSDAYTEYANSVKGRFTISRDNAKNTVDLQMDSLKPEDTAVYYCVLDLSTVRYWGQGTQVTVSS", "Reported Value": 0.115}
{"Binder": "Bm43B02 (VHH, Class A, second generation) VHH: QVQLVESGGGLVQAGGSLNLSCVISRRTPSGYAMGWFRQASGKEREFVAAISWIGGGAVYADSVKGRFTMSRDNAKNTVYLQMNSLKPEDTAVYYCNDMPYGLDTTMDDYDYWGQGTLVTVSS", "Reported Value": 0.13}
{"Binder": "VHH664 (VHH, Control VHH of Ablynx, disclosed in WO2012156219) VHH: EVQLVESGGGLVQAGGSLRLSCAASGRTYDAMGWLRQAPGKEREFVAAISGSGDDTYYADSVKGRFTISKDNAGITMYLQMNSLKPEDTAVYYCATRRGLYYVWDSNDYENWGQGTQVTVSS", "Reported Value": 0.15}
{"Binder": "Re42B04a (VHH, Class A; Monovalent VHH) VHH: QVQLVESGGGLVQVGGSLRLSCEVSGLPVSSYAMGWFRQAPEKEREFVAAISWIGGDSRYAHFVKGRFTISRDNAKNTVHLQMDSLKPEDTAVYYCNDMPYGLDTRMDEYEYWGQGTQVTVSS", "Reported Value": 0.05}

[a] Bm44B11 (VHH, Class A, second generation) VHH: QVQLVESGGGLVQAGGSLNLSCVISRRTPSGYAMGWFRQASGKEREFVAAISWIGGGAVYADSVKGRFTMSRDNAKNTVYLQMNSLKPEDTAVYYCNDMPYGLDTTMDDYDYWGQGTQVTVSS
[b] Bm44C09 (VHH, Class A, second generation) VHH: QVQLVESGGGLVQAGGSLRLSCAASGLAVSSYAMGWFRQAPGKEREFVAAISWISGGTKYADSVKDRFTMSRDNAKKQVYLEMNSLKPEDTAVYYCNDMPYGLDTRMDDYKYWGQGIQVTVSS
[c] Bm45G07 (VHH, Class D, second generation) VHH: QVQLVESGGGFVQAGGSLKLSCSVSGNTFITNHMGWFRQPPGKGREFVAGIRWSDGSTFYGDSVRGRFTISGDNAKHTLYLQMNSLKPDDTAVYYCYIDSGSDRYYGQGTLVTVSS
*Q* Put the items in order so that reported Kd rises from first to last. The labels, placed in the requested order, form the answer.
*A* c, a, b
(c: 0.06 nM, a: 0.15 nM, b: 2 nM)
